These data points were gathered from patent US20200354457A1.

Target: T1, soluble human Lag3-IgG1-Fc with biotinylated C-terminal Avi-tag (human, biotin on the C-terminal Avi-tag)
T1 construct: also called LAG3-Fc-avi; biotinylated LAG3-Fc antigen
T1 sequence (chain, as listed by the source limits assumed): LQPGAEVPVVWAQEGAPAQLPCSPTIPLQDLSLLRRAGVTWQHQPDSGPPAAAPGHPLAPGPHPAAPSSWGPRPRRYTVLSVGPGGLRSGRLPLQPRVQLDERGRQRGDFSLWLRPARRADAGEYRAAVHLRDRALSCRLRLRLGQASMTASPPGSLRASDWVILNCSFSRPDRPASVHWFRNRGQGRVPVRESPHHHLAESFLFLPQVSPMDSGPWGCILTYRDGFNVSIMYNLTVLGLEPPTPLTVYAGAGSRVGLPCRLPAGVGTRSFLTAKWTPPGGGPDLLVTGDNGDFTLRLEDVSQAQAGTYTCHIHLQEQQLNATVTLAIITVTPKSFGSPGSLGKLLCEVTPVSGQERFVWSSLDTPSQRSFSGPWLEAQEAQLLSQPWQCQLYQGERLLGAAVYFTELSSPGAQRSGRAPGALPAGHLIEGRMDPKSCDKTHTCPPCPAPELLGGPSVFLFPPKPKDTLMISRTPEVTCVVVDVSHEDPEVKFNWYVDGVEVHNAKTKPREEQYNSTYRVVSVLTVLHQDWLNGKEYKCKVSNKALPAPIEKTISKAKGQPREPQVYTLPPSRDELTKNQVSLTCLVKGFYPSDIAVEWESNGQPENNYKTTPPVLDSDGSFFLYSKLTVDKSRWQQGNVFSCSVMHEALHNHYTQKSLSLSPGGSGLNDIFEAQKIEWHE
Experiment: SPR (ProteOn XPR36), biotinylated LAG3-Fc captured on NLC chip, purified aVH as analyte, 25 C;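 further: One-shot kinetics in PBST running buffer, rates fitted by 1:1 Langmuir model fitting association and dissociation together, KD as koff/kon, biotinylated Fc surface as negative control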

binder | kon, M⁻¹ s⁻¹
LAG3 P10C3 aVH domain (VHH) VHH: EVQLVESGGGLVQPGGSLRLSCAASGFNIKDTCIGWVRRAPGKGTELVAEICTDAGYTRYADSVKGRFTISADTSKNTAYLQMNSLRAEDTAVYYCAASESPSGFRYWGQGTTVTVSS | 56200
LAG3 P21A03 aVH domain (VHH, also called 21A3) VHH: EVQLVESGGGLVQPGGSLRLSCAASGFNIKDTCIGWVRRAPGKGTELVAEICEDIGYTRYADSVKGRFTISADTSKNTAYLQMNSLRAEDTAVYYCAANEHSVGFNYWGQGTTVTVSS | 28200
